Species: Homo sapiens
Assay: Selectivity for human cathepsin K over human cathepsin L
Can you tell me Selectivity ratio for the items I'm about to list?

Look over these answered cases.
CSc1ccc(-c2cnccc2C2CCC(F)(F)CC2C(=O)NCC#N)cc1 (racemic)	520
CSc1ccc(-c2ccccc2C2CCC(F)(F)CC2C(=O)NCC#N)cc1 (racemic; form 1)	780
CSc1ccc(-c2ccccc2C2CCC(F)(F)CC2C(=O)NCC#N)cc1 (racemic; form 2)	880
CSc1ccc(-c2ncccc2C2CCC(F)(F)CC2C(=O)NCC#N)cc1 (racemic)	540
CSc1ccc(-c2c(C3CCC(F)(F)CC3C(=O)NCC#N)nnn2Cc2ccccc2)cc1 (racemic)	350
CSc1ccc(-c2c(C3CCC(F)(F)CC3C(=O)NCC#N)cc[nH]c2=O)cc1 (racemic)	430
CSc1ccc(-c2nc(C)sc2C2CCC(F)(F)CC2C(=O)NCC#N)cc1 (racemic)	270

molecule CSc1ccc(-c2cn(C)nc2C2CCC(F)(F)CC2C(=O)NCC#N)cc1 (racemic) , Selectivity ratio observed: 730
